- Test: Antiviral activity against Human herpesvirus 6 type A
- Format: functional, Human herpesvirus 6A
Value Kind: pIC50
In simple prose, pIC50 is minus the logarithm base ten of a concentration in moles per litre.

Note down pIC50 recorded for O=C(Nc1c(F)c(F)c(-c2cccc(OC(F)(F)F)c2)c(F)c1F)c1ccsc1C(=O)O [KIO-100]
8.81

----------
- Test: Inhibition of Helicobacter pylori DHODH
Known pKi of a selection of molecules
In simple prose, pKi is minus the logarithm base ten of a concentration in moles per litre.

// worked examples, pKi included
• COc1ccc(-n2nc(C(=O)Nc3ccccc3O)cc2C(=O)Nc2ccc(C(=O)N3CCCC3)cc2)cc1 = 7.30
• COc1ccc(-n2nc(C(=O)NCc3ccccc3)cc2C(=O)Nc2ccc(C(=O)N3CCCC3)cc2)cc1 = 7.59
• O=C(NCc1cccnc1)c1cc(C(=O)Nc2ccccc2)n(-c2ccc(Cl)cc2)n1 = 8.40

Note down pKi recorded for `O=C(NCc1ccccc1)c1cc(C(=O)Nc2ccccc2)n(-c2ccc(Cl)cc2)n1`
8.40

----------
Known pIC50 of a selection of compounds
- Test: Inhibition of Helicobacter pylori DHODH
In simple prose, pIC50 is minus the logarithm base ten of a concentration in moles per litre.

* CCCCCCCCc1[nH]c2ccccc2c(=O)c1C | 5.34

Note down pIC50 recorded for `CSC(=NCn1c(C/C=C(\C)CCC=C(C)C)c(C)c(=O)c2ccccc21)SC`
4.95

----------
- Tested On: Dihydroorotate dehydrogenase (quinone), mitochondrial (Homo sapiens, UniProt Q02127)
- Sequence (Q02127 whole entry): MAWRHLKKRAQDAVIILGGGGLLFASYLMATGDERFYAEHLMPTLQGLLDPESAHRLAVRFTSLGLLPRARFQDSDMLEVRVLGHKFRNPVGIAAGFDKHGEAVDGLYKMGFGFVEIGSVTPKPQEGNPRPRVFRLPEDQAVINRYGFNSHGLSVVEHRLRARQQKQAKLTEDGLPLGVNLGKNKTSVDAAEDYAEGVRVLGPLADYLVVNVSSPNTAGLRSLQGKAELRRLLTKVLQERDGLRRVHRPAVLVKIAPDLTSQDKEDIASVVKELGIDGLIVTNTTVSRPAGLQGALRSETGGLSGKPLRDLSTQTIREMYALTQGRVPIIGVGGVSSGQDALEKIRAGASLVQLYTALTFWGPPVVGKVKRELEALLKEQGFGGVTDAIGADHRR
Value Kind: pKi
In simple prose, pKi is minus the logarithm base ten of a concentration in moles per litre.

Provide pKi, recorded with Dihydroorotate dehydrogenase (quinone), mitochondrial (Homo sapiens, UniProt Q02127), of `O=C(N[C@@H]1CCCc2c1[nH]c1ccc(Cl)cc21)c1ccccn1`
6.69

----------
- Tested on: Dengue virus
- Test: Antiviral activity against Dengue virus assessed as reduction in virus replication
- Type: functional, organism-based
Value Kind: IC50 (µM)
Supply the numeric figure in µM, leaving out any unit text.

Note down IC50 recorded for `O=C(N[C@@H]1CCCc2c1[nH]c1ccc(Cl)cc21)c1ccccn1`
0.0133

----------
- Tested On: Dihydroorotate dehydrogenase (quinone), mitochondrial (Homo sapiens)
- Test: Inhibition of human DHODH
Value Kind: pIC50
In simple prose, pIC50 is minus the logarithm base ten of a concentration in moles per litre.

• O=C1C(O)=C([C@H]2CC[C@H](c3ccc(Cl)cc3)CC2)C(=O)c2ccccc21 [ATOVAQUONE] = 5.59

The record that follows has no pIC50 shown yet.
Note down pIC50 recorded for `COC(=O)c1c(-c2c(Cl)cccc2Cl)noc1-c1cnn(-c2cccc(Cl)c2)c1C(F)(F)F`
6.99

----------
- Tested on: Yellow fever virus
- Test: Antiviral activity against Yellow fever virus infected in human A549 cells assessed as reduction in virus replication
- Type: functional, organism-based
Value Kind: EC50 (nM)
Supply the numeric figure in nM, leaving out any unit text.

- COC(=O)c1c(-c2c(Cl)cccc2Cl)noc1-c1cnn(-c2cccc(Cl)c2)c1C(F)(F)F: 2.4

The record that follows has no EC50 shown yet.
Note down EC50 recorded for `Cc1c(-c2ccc(-c3ccccc3F)cc2)nc2ccc(F)cc2c1C(=O)O`
78

----------
- System: Cytomegalovirus
- Test: Antiviral activity against Cytomegalovirus
- Assay type: functional, organism-based
- Condition Parameters: Human betaherpesvirus 5
Value Kind: pIC50
In simple prose, pIC50 is minus the logarithm base ten of a concentration in moles per litre.

Note down pIC50 recorded for `O=C(Nc1c(F)c(F)c(-c2cccc(OC(F)(F)F)c2)c(F)c1F)c1ccsc1C(=O)O`
5.82

----------
- Tested on: Western equine encephalitis virus
- Test: Antiviral activity against Western equine encephalomyelitis virus infected in human A549 cells assessed as reduction in virus replication
- Type: functional, organism-based
Value Kind: pEC50
In simple prose, pEC50 is minus the logarithm base ten of a concentration in moles per litre.

* COC(=O)c1c(-c2c(Cl)cccc2Cl)noc1-c1cnn(-c2cccc(Cl)c2)c1C(F)(F)F | 8.62

The record that follows has no pEC50 shown yet.
Note down pEC50 recorded for `Cc1c(-c2ccc(-c3ccccc3F)cc2)nc2ccc(F)cc2c1C(=O)O`
7.11

Where these numbers come from: ChEMBL document CHEMBL4402534
